experimental-system: CA (Human immunodeficiency virus type 1 group M subtype B, UniProt P12493)
Construct: a fusion protein of CA with glutathione-S-transferase (CA-GST)
measurement-notes: ALPHA screen (AlphaScreen): inhibition of CAI binding to CA
Design: species or system HIV-1
Protocol: The AlphaScreen experiments are performed using Perkin Elmer Enspire plate reader in white 96-well ProxiPlates and PBS supplemented with 0.05% Tween20, 2mM DTT, 2% DMSO. First, Streptavidin-coated Donor beads are used to capture the CAI-biotin peptide. […] To test the ability of prepared organic compounds to inhibit the CAI binding to CA, they are screened at concentrations between 0.5-100 µM and IC50 values are calculated from the influenced signals. […]
measured-metric: pIC50
Just so you know, pIC50 here is -log10 of the concentration in molar units; reply with that number alone.

Q. GET /values?readout=pIC50&item= CCOC(=O)c1ccc(Nc2nc(-c3ccncc3)nc3ccccc23)cc1
A. 5.14

###

experimental-system: CA (Human immunodeficiency virus type 1 group M subtype B)
Construct: a fusion protein of CA with glutathione-S-transferase (CA-GST)
measurement-notes: ALPHA screen (AlphaScreen): inhibition of CAI binding to CA
Set-up: species or system HIV-1
measurement-context: CAI-biotin peptide / CA-GST; compounds screened at 0.5-100 µM; read-out: α screen IC50
Description: The AlphaScreen experiments are performed using Perkin Elmer Enspire plate reader in white 96-well ProxiPlates and PBS supplemented with 0.05% Tween20, 2mM DTT, 2% DMSO. First, Streptavidin-coated Donor beads are used to capture the CAI-biotin peptide. […] To test the ability of prepared organic compounds to inhibit the CAI binding to CA, they are screened at concentrations between 0.5-100 µM and IC50 values are calculated from the influenced signals. […]
Binary call on IC50 with cut-off 40 µM: strictly below means Fulfilled, and equality or higher means Not fulfilled.

Q. Hi there! Is IC50 for Clc1ccc(-c2nc(Nc3cc(Cl)ccc3Cl)c3ccccc3n2)c(Cl)c1 below 40 µM, do you know?
A. Not fulfilled

Q. State whether 40 µM exceeds IC50 recorded for Clc1ccc(Cl)c(Nc2nc(-c3ccncc3)nc3ccccc23)c1 .
A. Not fulfilled

Q. Is it true that IC50 reported for O=[N+]([O-])c1ccc(F)c(Nc2nc(-c3ccc(Cl)cc3)nc3ccccc23)c1 is less than 40 µM?
A. Not fulfilled

Q. Report whether reported IC50 is lower than 40 µM (strictly) for CN(C)c1cccc(Nc2nc(-c3cccnc3)nc3ccccc23)c1
A. Not fulfilled

Q. Would you kindly verify if IC50 of Fc1cc(Nc2nc(-c3ccncc3)nc3ccccc23)c(F)cc1Br is strictly less than 40 µM?
A. Fulfilled

Q. Please indicate whether the reported IC50 of Fc1ccc(Cl)cc1Nc1nc(-c2ccncc2)nc2ccccc12 is strictly below 40 µM.
A. Fulfilled

Q. Does this compound meet the criterion IC50 < 40 µM? O=[N+]([O-])c1cc(Nc2nc(-c3cccnc3)nc3ccccc23)ccc1F
A. Fulfilled

Q. Here's an entry: O=[N+]([O-])c1cccc(O)c1Nc1nc(-c2cccnc2)nc2ccccc12 . Is its IC50 below 40 µM?
A. Fulfilled

Q. Confirm or reject: IC50 of Fc1ccc(Nc2nc(-c3ccc(Cl)cc3Cl)nc3ccccc23)cc1 lies strictly below 40 µM
A. Not fulfilled

Q. Hello, is IC50 of the following compound strictly smaller than 40 µM? COc1ccc(Nc2nc(-c3ccc(Cl)cc3Cl)nc3ccccc23)cc1OC
A. Not fulfilled
